# tested_target: human ether-à-go-go-related gene (hERG) potassium channel (human, UniProt Q12809);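 note: peak tail current of the secondary pulse compared with the same well before compound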
# Sequence (Q12809 whole entry, looked up): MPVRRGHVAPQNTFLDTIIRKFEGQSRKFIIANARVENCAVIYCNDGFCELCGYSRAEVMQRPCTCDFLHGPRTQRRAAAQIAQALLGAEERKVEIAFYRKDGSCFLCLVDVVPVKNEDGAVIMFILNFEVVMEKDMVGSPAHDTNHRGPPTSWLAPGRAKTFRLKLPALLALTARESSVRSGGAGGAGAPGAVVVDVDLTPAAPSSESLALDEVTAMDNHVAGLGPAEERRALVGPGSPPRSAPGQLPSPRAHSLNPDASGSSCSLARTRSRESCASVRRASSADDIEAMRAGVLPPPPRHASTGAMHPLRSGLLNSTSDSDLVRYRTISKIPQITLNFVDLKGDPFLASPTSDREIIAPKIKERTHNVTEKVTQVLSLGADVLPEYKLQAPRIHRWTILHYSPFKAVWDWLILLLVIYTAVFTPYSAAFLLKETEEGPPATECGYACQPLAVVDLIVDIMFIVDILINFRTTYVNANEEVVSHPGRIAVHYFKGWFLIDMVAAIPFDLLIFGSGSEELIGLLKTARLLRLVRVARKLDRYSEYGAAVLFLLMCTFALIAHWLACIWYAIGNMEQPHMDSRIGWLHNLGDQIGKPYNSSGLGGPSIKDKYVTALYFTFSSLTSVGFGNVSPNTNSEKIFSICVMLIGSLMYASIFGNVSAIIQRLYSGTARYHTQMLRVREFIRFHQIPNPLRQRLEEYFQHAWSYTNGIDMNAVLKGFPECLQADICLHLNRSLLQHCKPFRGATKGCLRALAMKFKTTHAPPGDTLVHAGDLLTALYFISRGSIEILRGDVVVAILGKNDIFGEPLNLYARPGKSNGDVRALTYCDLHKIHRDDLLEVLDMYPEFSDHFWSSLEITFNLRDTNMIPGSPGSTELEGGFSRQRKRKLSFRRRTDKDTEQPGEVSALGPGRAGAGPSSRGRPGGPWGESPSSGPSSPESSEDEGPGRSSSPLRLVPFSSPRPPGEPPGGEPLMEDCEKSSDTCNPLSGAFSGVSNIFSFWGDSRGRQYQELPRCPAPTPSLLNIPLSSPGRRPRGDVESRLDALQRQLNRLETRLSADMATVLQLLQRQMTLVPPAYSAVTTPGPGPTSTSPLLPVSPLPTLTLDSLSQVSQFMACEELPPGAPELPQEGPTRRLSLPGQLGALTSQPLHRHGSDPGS
# measurement_protocol: primary screen, population patch clamp on CHO cells stably expressing hERG; higher = less effect of the substance
The campaign covered roughly 310,000 compounds. About 14,000 (4.5%) showed an effect of 50% or more. Effects have a minus sign here. The entries come from a sample that favours strong results as a whole.
So I've got a bunch of compounds here, and I need their hERG current change (%, negative = inhibition) at 10uM values.
Answers are plain numbers, in %.

Below, each entry is followed by its recorded hERG current change (%, negative = inhibition) at 10uM result.
INSERT INTO assay_data (compound, tested_target, units_of_measure, measured_number) VALUES
  ('O=c1[nH]ncn1-c1cccc(C(F)(F)F)c1', 'human ether-à-go-go-related gene (hERG) potassium channel (human, UniProt Q12809)', '%', 10.8),
  ('O=C(NC1CCCCC1)C1CCCN(S(=O)(=O)c2cccs2)C1 (stereo not shown)', 'human ether-à-go-go-related gene (hERG) potassium channel (human, UniProt Q12809)', '%', 11.3),
  ('COc1ccc(/C=c2/sc3nc(-c4ccccc4)c(-c4ccccc4)n3c2=O)cc1', 'human ether-à-go-go-related gene (hERG) potassium channel (human, UniProt Q12809)', '%', -13.9);

Respectfully, I request hERG current change (%, negative = inhibition) at 10uM for each entry included below.
1. O=C(O)C1CCCC2CN3CCc4c([nH]c5ccccc45)C3C(O)C21 (stereo not shown)
2. Cc1ccc(CN2CCC(n3nccc3NC(=O)CCOc3ccccc3)CC2)cc1C
3. O=C(O)CCCn1cc(NC(=O)COc2ccc(F)cc2)cn1
4. CC(C)c1nc2cc(C(=O)N(C)Cc3ccc(F)cc3)ccc2o1
5. Cc1cc(C=C2C(=O)c3ccccc3C2=O)c(C)n1-c1ccc(C(=O)O)cc1
6. Cc1noc(C)c1COC(=O)CN(C)S(=O)(=O)c1ccc(Cl)cc1

Result:
[13.7, -48.2, 16.5, 1.04, 1.68, -14.4]

Respectfully, I request hERG current change (%, negative = inhibition) at 10uM for each entry included below.
1. O=C1C2C3C=CC(C3)C2C(=O)N1c1cccc2ccccc12 (stereo not shown)
2. C/C(=N/Nc1nc(-c2ccccc2)cc(-c2ccc(F)cc2)n1)c1cccc(N)c1

Result:
1: 18.7; 2: 3.2

Respectfully, I request hERG current change (%, negative = inhibition) at 10uM for each entry included below.
1. Cc1ccc(NC(=O)c2ccc3c(c2)OCO3)cc1S(=O)(=O)N1CCOCC1
2. O=C(N/N=C\c1cc(Br)cs1)c1ccncc1
3. O=C(Nc1ccccn1)c1cccc(S(=O)(=O)N2CCOCC2)c1
4. Cc1cc(C(=O)Nc2ccc(C)c(S(=O)(=O)N3CCOCC3)c2)c(C)o1

Result:
[-20.3, -6.73, -6.45, -6.59]

Respectfully, I request hERG current change (%, negative = inhibition) at 10uM for each entry included below.
1. Cc1ccc(Cl)cc1NC(=O)CN1CCN(S(=O)(=O)N2CCOCC2)CC1
2. Cc1cc(C)n2cc(-c3ccc(Cl)cc3)c(C(=O)O)c2n1
3. Cc1cc(C(=O)NNC(=O)c2ccc(C)s2)c(C)o1

Result:
-64.3
-50.9
3.91

Respectfully, I request hERG current change (%, negative = inhibition) at 10uM for each entry included below.
1. Cc1ccc(NC(=O)c2cccc(S(=O)(=O)N3CCCC3)c2)nc1
2. Cc1ccc(Cc2nnc(SCC(=O)Nc3ccc(C)cc3C)[nH]c2=O)cc1
3. CCOCCCNc1c(CC)c(C)c(C#N)c2nc3ccccc3n12
4. O=C(CN1CCN(C(=O)C2CCCO2)CC1)Nc1cc(C(F)(F)F)ccc1Cl (stereo not shown)

Result:
1. -7.18
2. 5.33
3. -42.3
4. -45.8

meta.source: paper PMC4336329
